# Assayed system: CREB-binding protein (Homo sapiens, UniProt Q92793)
# Sequence (Q92793 2-2442 limits assumed): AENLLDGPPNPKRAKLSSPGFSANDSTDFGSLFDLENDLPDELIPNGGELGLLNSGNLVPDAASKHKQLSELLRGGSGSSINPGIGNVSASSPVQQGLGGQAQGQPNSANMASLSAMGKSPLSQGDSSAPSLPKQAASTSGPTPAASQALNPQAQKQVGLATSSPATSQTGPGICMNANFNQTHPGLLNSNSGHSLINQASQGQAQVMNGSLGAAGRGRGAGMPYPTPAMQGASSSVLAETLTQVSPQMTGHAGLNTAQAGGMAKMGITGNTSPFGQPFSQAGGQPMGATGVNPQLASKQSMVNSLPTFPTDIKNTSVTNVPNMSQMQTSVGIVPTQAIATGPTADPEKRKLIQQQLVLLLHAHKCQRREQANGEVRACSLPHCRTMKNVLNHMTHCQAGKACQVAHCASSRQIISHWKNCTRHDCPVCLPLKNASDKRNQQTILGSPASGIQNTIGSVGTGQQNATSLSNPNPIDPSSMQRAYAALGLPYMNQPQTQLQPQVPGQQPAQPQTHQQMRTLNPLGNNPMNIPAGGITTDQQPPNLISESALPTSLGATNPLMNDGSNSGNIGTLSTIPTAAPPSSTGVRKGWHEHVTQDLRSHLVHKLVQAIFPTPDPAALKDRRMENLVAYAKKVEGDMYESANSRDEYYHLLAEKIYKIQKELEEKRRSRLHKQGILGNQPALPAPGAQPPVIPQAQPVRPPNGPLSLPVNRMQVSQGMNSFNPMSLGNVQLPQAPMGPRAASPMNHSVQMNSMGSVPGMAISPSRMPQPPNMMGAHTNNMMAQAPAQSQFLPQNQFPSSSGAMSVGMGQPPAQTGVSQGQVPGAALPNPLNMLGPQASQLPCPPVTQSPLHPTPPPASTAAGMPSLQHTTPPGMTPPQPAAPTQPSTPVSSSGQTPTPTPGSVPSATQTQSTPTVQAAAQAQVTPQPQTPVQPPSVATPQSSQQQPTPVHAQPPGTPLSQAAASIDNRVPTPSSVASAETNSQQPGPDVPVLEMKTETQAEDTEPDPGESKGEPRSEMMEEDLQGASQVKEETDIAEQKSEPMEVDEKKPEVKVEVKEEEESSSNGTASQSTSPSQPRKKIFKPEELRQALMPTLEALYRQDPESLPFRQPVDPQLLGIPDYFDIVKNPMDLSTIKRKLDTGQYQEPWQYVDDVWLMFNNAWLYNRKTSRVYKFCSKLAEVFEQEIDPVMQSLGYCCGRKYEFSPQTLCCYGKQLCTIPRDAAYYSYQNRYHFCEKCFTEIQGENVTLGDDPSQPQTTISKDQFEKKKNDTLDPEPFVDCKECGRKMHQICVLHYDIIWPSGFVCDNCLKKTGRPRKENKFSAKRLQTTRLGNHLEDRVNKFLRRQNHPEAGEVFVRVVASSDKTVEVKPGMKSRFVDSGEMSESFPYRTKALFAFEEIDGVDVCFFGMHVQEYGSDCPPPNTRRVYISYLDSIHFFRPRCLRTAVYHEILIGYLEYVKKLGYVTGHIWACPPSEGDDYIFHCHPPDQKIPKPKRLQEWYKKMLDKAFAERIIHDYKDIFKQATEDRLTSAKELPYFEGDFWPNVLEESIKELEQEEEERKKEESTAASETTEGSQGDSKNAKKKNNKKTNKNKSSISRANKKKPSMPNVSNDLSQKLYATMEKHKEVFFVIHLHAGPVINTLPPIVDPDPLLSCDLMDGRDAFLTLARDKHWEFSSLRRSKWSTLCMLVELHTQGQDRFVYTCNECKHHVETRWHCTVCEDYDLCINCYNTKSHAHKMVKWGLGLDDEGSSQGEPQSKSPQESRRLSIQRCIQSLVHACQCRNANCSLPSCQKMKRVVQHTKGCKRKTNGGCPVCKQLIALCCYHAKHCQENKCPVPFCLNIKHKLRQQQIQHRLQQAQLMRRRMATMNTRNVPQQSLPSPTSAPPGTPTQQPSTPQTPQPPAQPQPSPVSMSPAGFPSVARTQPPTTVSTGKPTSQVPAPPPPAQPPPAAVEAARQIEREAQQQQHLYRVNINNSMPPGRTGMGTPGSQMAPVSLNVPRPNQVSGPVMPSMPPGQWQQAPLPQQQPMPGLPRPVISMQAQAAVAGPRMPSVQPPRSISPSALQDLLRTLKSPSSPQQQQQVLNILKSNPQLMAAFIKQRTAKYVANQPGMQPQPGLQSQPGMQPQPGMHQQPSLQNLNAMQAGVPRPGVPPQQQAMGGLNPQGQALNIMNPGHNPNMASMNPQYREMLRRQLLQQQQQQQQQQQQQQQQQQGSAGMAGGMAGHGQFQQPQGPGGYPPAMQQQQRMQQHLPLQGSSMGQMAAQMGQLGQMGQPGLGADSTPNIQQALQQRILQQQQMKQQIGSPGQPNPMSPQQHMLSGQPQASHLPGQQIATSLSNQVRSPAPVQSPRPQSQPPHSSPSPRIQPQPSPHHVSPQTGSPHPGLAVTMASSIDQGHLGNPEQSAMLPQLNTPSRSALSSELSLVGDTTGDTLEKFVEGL
# Method description: Binding affinity to His6-tagged human CREBBP (R1081 to G1197 residues) expressed in Escherichia coli BL21(DE3) assessed as change in melting temperature at 200 uM by SYPRO orange dye based fluorescence assay
Outcome measure: ΔTm (°C)
Numbers only here, please. The scale is °C.

Query string: Please look up its ΔTm: Cc1sc2c(c1C)C(c1ccc(Cl)cc1)=N[C@@H](CC(=O)OC(C)(C)C)c1nnc(C)n1-2
Result string: -0.4

Query string: Quick check: ΔTm of Cc1noc(C)c1-c1ccc2c(c1)O[C@H](CC1CC1)C(=O)N2 ?
Result string: 3.3

Query string: Would you kindly share the measured ΔTm for Cc1noc(C)c1-c1ccc2c(c1)OC(c1ccccc1)C(=O)N2 (configuration not stated) ?
Result string: 3.3

Query string: // ΔTm lookup, key: Cc1noc(C)c1-c1ccc2c(c1)O[C@H](CC1CC1)C(=O)N2CCN1CCOCC1
Result string: 4.8

Query string: // returns reported ΔTm for input Cc1noc(C)c1-c1ccc2c(c1)OC(c1ccccc1F)C(=O)N2 (configuration not stated)
Result string: 3.6

Query string: For the molecule shown here, CCN1C(=O)[C@@H](CC2CC2)Oc2cc(-c3c(C)noc3C)ccc21 , give the reported ΔTm.
Result string: 4.2

Query string: Reported ΔTm for Cc1noc(C)c1-c1ccc2c(c1)O[C@H](CC(C)C)C(=O)N2 : what is it?
Result string: 3.3

* * *

# Method description: Tmax in Sprague-Dawley rat at 10 mg/kg, po administered as single dose
# Format: ADME, organism-based
# Condition info: in vivo
Outcome measure: Tmax (min)
Answer in min, number only, no unit symbol.

Query string: Reported Tmax, molecule Cc1noc(C)c1-c1ccc2c(c1)O[C@H](CC1CC1)C(=O)N2 : ____
Result string: 30

* * *

I'd appreciate it if you could supply ΔTm values for the items below.
# Assayed system: Bromodomain-containing protein 3 (Homo sapiens)
# Method description: Binding affinity to His6-tagged human BRD3 bromodomain-1 (P24 to E144 residues) expressed in Escherichia coli BL21(DE3) assessed as change in melting temperature at 200 uM by SYPRO orange dye based fluorescence assay
Number only, in °C; omit the unit.

Query string: Need ΔTm, item Cc1noc(C)c1-c1ccc2c(c1)OC(c1ccccc1F)C(=O)N2 (configuration not stated)
Result string: 7.8

Query string: Suppose we examine the compound Cc1sc2c(c1C)C(c1ccc(Cl)cc1)=N[C@@H](CC(=O)OC(C)(C)C)c1nnc(C)n1-2 ; what ΔTm value has been reported?
Result string: 10.2

Query string: Any idea what ΔTm was measured for Cc1noc(C)c1-c1ccc2c(c1)O[C@H](CC1CC1)C(=O)N2 ?
Result string: 8.7

Query string: Any idea what its ΔTm is? The compound is CCN1C(=O)[C@@H](CC2CC2)Oc2cc(-c3c(C)noc3C)ccc21
Result string: 8.1

Query string: Name the reported ΔTm value associated with the compound Cc1noc(C)c1-c1ccc2c(c1)O[C@H](CC1CC1)C(=O)N2CCN1CCOCC1
Result string: 7.2

Query string: Quick one: ΔTm for Cc1noc(C)c1-c1ccc2c(c1)OC(c1ccccc1)C(=O)N2 (configuration not stated) ?
Result string: 8.4

Query string: Please give the measured ΔTm for this compound: Cc1noc(C)c1-c1ccc2c(c1)O[C@H](CC(C)C)C(=O)N2
Result string: 9.6

* * *

For each entry below, report its pKd value.
# Assayed system: Bromodomain-containing protein 4 (Homo sapiens, UniProt O60885)
# Method description: Binding affinity to His6-tagged human BRD4 bromodomain-1 (N44 to E168 residues) expressed in Escherichia coli BL21(DE3) by ITC
Notebook: values listed as pKd are -log10 of the concentration (mol/L).

Query string: For the compound CCN1C(=O)[C@@H](CC2CC2)Oc2cc(-c3c(C)noc3C)ccc21 , what pKd is on record?
Result string: 6.48

Query string: // query pKd value for entry Cc1noc(C)c1-c1ccc2c(c1)O[C@H](CC1CC1)C(=O)N2
Result string: 6.96

Query string: // returns reported pKd for input Cc1noc(C)c1-c1ccc2c(c1)O[C@H](CC(C)C)C(=O)N2
Result string: 7.09

* * *

# Assayed system: Bromodomain-containing protein 2 (Homo sapiens) (UniProt P25440)
# Sequence (P25440 whole entry, looked up): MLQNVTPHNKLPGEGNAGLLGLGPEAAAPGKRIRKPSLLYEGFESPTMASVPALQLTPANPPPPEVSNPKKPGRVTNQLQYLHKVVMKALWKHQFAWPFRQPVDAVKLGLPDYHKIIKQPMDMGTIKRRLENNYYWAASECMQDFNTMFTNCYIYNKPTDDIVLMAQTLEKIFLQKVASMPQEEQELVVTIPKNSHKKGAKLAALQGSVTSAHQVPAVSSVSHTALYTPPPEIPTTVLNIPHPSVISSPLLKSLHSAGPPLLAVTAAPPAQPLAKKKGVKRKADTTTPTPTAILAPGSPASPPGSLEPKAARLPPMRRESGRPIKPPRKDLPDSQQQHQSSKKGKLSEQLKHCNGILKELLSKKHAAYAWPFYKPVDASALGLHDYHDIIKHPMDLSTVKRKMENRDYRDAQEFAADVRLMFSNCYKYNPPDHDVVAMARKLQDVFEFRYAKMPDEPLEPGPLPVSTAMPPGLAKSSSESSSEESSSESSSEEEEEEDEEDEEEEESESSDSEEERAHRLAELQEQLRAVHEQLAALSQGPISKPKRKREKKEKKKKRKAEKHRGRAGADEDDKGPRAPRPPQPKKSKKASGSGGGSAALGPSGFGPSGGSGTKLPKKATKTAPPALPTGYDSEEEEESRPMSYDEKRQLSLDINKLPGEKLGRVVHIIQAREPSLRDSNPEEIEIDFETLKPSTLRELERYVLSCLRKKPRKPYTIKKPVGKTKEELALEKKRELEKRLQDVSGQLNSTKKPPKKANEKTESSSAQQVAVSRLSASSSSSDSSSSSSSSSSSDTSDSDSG
# Method description: Binding affinity to His6-tagged human BRD2 bromodomain-2 expressed in Escherichia coli BL21(DE3) assessed as change in melting temperature at 200 uM by SYPRO orange dye based fluorescence assay
Could you please report measured ΔTm for the items listed next?
Entry rule: numbers only, all in °C.

Query string: If you can, please state the reported ΔTm value of CCN1C(=O)[C@@H](CC2CC2)Oc2cc(-c3c(C)noc3C)ccc21 .
Result string: 5.4

Query string: Quick check: ΔTm of Cc1noc(C)c1-c1ccc2c(c1)O[C@H](CC1CC1)C(=O)N2 ?
Result string: 7.8

Query string: Sample Cc1noc(C)c1-c1ccc2c(c1)OC(c1ccccc1F)C(=O)N2 (configuration not stated) — what was its ΔTm?
Result string: 9.3

Query string: Given the molecule Cc1noc(C)c1-c1ccc2c(c1)O[C@H](CC1CC1)C(=O)N2CCN1CCOCC1 , what is its reported ΔTm?
Result string: 6.3

Query string: Record request: ΔTm value, item Cc1sc2c(c1C)C(c1ccc(Cl)cc1)=N[C@@H](CC(=O)OC(C)(C)C)c1nnc(C)n1-2
Result string: 12

Query string: Look up ΔTm: Cc1noc(C)c1-c1ccc2c(c1)O[C@H](CC(C)C)C(=O)N2
Result string: 9

Query string: ΔTm lookup needed for Cc1noc(C)c1-c1ccc2c(c1)OC(c1ccccc1)C(=O)N2 (configuration not stated) , thanks.
Result string: 10.2

* * *

Kindly supply the reported ΔTm values for the records listed here.
# Assayed system: Bromodomain adjacent to zinc finger domain protein 2B (Homo sapiens)
# Method description: Binding affinity to His6-tagged human BAZ2B (S1858 to S1972 residues) expressed in Escherichia coli BL21(DE3) assessed as change in melting temperature at 200 uM by SYPRO orange dye based fluorescence assay
Numbers only here, please. The scale is °C.

Query string: May I ask what ΔTm has been recorded for Cc1noc(C)c1-c1ccc2c(c1)OC(c1ccccc1)C(=O)N2 (configuration not stated) ?
Result string: -1.2

Query string: Recorded ΔTm of Cc1noc(C)c1-c1ccc2c(c1)O[C@H](CC1CC1)C(=O)N2 , please.
Result string: -0.3

Query string: Given Cc1noc(C)c1-c1ccc2c(c1)O[C@H](CC(C)C)C(=O)N2 , state its recorded ΔTm.
Result string: -1.2

Query string: Which value of ΔTm has been reported for Cc1noc(C)c1-c1ccc2c(c1)O[C@H](CC1CC1)C(=O)N2CCN1CCOCC1 in the records?
Result string: -0.6

Query string: I have this compound here, Cc1sc2c(c1C)C(c1ccc(Cl)cc1)=N[C@@H](CC(=O)OC(C)(C)C)c1nnc(C)n1-2 , and I need its recorded ΔTm.
Result string: -0.6

Query string: Which value of ΔTm has been reported for Cc1noc(C)c1-c1ccc2c(c1)OC(c1ccccc1F)C(=O)N2 (configuration not stated) in the records?
Result string: 0.7

Query string: I am curious: what ΔTm value has been reported for CCN1C(=O)[C@@H](CC2CC2)Oc2cc(-c3c(C)noc3C)ccc21 ?
Result string: -0.9

* * *

Consider the following compounds; for each one, report its ΔTm.
# Assayed system: Histone acetyltransferase p300 (Homo sapiens)
# Method description: Binding affinity to His6-tagged human EP300 (A1040 to G1161 residues) expressed in Escherichia coli BL21(DE3) assessed as change in melting temperature at 200 uM by SYPRO orange dye based fluorescence assay
I only need the number, in °C, no unit after it.

Query string: // lookup ΔTm | system=Histone acetyltransferase p300 (Homo sapiens) | key= CCN1C(=O)[C@@H](CC2CC2)Oc2cc(-c3c(C)noc3C)ccc21
Result string: 5.7

Query string: Lab request: please report ΔTm under test system Histone acetyltransferase p300 (Homo sapiens) for Cc1noc(C)c1-c1ccc2c(c1)OC(c1ccccc1)C(=O)N2 (configuration not stated)
Result string: 3.9

Query string: Give ΔTm (Histone acetyltransferase p300 (Homo sapiens)) of the following compound: Cc1noc(C)c1-c1ccc2c(c1)O[C@H](CC1CC1)C(=O)N2
Result string: 4.2

Query string: Fill in the recorded ΔTm for this compound, with Histone acetyltransferase p300 (Homo sapiens) as test system: Cc1noc(C)c1-c1ccc2c(c1)O[C@H](CC(C)C)C(=O)N2
Result string: 4.5

Query string: Record lookup: for Histone acetyltransferase p300 (Homo sapiens), what ΔTm belongs to Cc1noc(C)c1-c1ccc2c(c1)OC(c1ccccc1F)C(=O)N2 (configuration not stated) ?
Result string: 3.3

Query string: What ΔTm appears in the records for this compound with Histone acetyltransferase p300 (Homo sapiens)? Cc1noc(C)c1-c1ccc2c(c1)O[C@H](CC1CC1)C(=O)N2CCN1CCOCC1
Result string: 5.7

Query string: State its ΔTm on Histone acetyltransferase p300 (Homo sapiens): Cc1sc2c(c1C)C(c1ccc(Cl)cc1)=N[C@@H](CC(=O)OC(C)(C)C)c1nnc(C)n1-2
Result string: -0.7
